# assay_target: T1, human CD47 protein, His Tag (ACRObiosystems, Cat. No. CD7-H5227) (human, UniProt Q08722 19-139)
# T1 construct: bought reagent; also called CD47-His; hCD47-His Tag; not shown: His tag
# T1 sequence (Q08722 19-139 limits assumed): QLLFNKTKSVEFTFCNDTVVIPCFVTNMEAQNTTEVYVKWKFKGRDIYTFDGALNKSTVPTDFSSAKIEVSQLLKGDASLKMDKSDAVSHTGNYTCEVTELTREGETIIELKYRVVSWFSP
# procedure_details: Biacore SPR, 25 C, antibody captured on CM5 chip
measured_endpoint: pKd
# pKd: negative log10 of molar concentration; output just the value

Q: Which value of pKd has been reported for hz3F10-5.2 (antibody, human IgG4 S228P, kappa, V domains shown, humanized 3F10, full-length heavy and light chains) VH: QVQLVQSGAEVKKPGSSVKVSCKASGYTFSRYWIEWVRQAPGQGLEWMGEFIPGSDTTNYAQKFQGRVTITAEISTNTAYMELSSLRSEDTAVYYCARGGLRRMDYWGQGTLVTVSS VL: DIQMTQSPSSLSASVGDRVTITCRASSSVSSTYLHWYQQKPGKAPKLWIYTTSTLASGVPSRFSGSGSGTSYTLTISSLQPEDFATYYCQQFSDSTWTFGQGTKLEIKR in the records?
A: 9.05
